# credit: ChEMBL document CHEMBL1914304

Biological target: Sulfonylurea receptor 2, Kir6.2 (Homo sapiens, UniProt O60706+Q14654)
Sequence (Q14654 whole entry): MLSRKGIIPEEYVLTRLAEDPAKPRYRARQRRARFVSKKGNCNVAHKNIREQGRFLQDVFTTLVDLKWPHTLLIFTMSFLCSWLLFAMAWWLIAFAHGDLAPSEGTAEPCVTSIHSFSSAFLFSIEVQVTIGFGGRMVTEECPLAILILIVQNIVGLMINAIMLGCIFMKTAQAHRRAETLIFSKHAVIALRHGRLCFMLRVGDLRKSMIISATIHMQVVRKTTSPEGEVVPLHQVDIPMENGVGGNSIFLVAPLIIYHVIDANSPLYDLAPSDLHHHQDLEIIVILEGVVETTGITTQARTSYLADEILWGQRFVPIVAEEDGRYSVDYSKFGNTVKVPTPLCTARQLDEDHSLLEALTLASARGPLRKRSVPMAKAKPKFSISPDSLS
Sequence (O60706 whole entry): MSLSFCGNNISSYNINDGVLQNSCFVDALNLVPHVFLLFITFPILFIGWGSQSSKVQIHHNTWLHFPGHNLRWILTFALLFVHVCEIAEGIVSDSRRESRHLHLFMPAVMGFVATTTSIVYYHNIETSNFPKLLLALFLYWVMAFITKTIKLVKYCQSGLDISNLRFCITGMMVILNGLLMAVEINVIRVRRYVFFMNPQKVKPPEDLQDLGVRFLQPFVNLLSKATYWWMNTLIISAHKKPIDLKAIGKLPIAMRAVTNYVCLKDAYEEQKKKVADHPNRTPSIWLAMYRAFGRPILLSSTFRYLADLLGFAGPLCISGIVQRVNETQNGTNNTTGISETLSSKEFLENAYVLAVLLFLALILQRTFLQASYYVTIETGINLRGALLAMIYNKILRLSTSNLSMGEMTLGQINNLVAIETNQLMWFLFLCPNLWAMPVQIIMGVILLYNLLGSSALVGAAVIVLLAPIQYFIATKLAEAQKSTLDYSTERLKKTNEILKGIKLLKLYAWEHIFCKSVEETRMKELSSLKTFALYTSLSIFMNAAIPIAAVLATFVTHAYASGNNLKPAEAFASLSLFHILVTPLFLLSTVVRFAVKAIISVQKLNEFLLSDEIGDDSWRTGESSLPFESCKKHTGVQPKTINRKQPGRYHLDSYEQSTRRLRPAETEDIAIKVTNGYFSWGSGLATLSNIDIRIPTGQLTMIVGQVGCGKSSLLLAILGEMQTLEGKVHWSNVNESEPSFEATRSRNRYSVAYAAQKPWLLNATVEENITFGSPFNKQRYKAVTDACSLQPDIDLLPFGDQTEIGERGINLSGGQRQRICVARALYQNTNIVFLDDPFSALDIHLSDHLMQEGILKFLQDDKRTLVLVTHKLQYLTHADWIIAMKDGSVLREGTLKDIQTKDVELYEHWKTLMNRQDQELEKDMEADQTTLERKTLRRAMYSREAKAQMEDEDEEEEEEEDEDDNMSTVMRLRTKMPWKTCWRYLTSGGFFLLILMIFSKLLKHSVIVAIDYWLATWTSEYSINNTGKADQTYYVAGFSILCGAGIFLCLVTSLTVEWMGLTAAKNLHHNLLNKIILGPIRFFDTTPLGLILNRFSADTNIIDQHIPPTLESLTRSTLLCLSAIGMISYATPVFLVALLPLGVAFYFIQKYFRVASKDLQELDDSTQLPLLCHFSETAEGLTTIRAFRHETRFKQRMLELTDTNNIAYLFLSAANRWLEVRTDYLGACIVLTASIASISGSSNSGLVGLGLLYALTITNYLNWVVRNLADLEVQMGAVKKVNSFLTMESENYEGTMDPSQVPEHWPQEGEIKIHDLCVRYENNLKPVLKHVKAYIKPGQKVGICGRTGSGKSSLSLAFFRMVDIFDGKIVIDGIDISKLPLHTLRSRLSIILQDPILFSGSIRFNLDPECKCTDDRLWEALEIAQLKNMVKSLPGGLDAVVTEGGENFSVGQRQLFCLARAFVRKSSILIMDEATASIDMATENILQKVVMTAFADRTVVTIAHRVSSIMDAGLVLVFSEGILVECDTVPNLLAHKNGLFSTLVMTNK
Assay: Inhibition of human kir6.2/SUR2A ion channel coexpressed in human HEK293 cells after 5 mins by patch clamp assay
Type: cell-based
pIC50: −log10 of the molar value.
parameter measured: pIC50

The cases that follow already have their pIC50 on record.
Cc1ccc(N2CCN(CC(O)COc3ccccc3C(=O)CCc3ccccc3)CC2)cc1.Cl (racemic)
< 5.30
Cl.O=C(CCc1ccccc1)c1cc(F)ccc1OCC(O)CN1CCN(C(c2ccccc2)c2ccccc2)CC1 (racemic)
< 5.30
CCCNCC(O)COc1ccccc1C(=O)CCc1ccccc1 (racemic)
5.66

Identify the reported pIC50 for the following entry. Cl.O=C(CCc1ccccc1)c1ccccc1OCC(O)CN1CCC(c2ccccc2)CC1 (racemic)
< 5.30

====

Molecular target: Sodium channel protein type 5 subunit alpha (Homo sapiens)
Sequence (Q14524 whole entry): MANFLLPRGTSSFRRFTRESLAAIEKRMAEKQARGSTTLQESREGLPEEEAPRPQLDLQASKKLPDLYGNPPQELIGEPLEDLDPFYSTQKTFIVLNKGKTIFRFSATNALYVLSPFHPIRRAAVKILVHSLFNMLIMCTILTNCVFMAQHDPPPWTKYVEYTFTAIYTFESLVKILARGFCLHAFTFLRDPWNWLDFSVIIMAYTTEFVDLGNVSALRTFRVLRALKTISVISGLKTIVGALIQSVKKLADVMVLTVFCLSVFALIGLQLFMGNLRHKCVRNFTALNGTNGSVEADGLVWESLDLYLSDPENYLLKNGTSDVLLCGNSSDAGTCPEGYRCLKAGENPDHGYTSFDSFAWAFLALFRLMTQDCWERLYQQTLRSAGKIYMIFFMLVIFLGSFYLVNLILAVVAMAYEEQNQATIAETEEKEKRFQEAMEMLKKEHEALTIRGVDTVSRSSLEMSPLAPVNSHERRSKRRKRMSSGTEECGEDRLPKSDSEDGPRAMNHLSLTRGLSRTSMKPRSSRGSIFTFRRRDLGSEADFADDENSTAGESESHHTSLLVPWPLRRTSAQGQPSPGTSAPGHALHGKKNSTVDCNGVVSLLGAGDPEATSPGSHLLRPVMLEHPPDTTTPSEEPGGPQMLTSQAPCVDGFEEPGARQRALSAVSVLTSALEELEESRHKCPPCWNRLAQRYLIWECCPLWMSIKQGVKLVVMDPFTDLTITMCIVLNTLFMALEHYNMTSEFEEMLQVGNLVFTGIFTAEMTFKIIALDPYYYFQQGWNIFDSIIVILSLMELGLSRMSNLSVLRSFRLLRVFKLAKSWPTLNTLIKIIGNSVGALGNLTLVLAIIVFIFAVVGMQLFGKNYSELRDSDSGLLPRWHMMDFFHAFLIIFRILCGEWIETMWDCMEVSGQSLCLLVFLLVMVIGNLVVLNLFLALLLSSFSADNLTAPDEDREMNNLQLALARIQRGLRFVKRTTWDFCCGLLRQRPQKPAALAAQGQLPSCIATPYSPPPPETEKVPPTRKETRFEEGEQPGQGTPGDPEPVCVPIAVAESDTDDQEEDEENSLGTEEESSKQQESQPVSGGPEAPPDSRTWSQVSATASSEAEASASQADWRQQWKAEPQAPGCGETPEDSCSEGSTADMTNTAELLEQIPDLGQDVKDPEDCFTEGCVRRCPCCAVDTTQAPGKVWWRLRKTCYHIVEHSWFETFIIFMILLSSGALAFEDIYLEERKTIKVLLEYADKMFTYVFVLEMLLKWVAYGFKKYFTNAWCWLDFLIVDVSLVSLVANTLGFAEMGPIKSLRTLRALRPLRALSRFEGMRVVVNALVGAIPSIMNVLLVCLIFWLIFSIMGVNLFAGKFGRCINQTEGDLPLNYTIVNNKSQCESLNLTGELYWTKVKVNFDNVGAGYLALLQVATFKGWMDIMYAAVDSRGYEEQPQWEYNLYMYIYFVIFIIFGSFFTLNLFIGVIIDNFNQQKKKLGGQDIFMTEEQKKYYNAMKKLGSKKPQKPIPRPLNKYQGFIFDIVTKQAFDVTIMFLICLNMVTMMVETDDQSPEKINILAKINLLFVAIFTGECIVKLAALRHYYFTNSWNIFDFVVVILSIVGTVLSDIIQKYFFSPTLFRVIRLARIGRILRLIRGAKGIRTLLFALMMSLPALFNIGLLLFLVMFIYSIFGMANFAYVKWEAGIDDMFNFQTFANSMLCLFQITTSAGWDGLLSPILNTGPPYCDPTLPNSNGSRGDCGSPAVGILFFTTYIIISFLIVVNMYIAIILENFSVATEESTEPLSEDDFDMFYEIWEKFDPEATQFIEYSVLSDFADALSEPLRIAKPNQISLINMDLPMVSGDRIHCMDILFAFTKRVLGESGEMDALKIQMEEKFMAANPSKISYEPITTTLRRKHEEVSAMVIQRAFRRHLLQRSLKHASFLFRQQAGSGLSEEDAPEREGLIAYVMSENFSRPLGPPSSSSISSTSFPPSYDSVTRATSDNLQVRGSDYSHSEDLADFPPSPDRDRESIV
Assay: Inhibition of human cloned Nav1.5 channel expressed in chinese hamster CHO cells assessed as phasic inhibition after 5 mins by patch clamp assay
Type: cell-based
pIC50: −log10 of the molar value.
parameter measured: pIC50

Cc1ccc(N2CCN(CC(O)COc3ccccc3C(=O)CCc3ccccc3)CC2)cc1.Cl (racemic)
< 5.30
Cl.O=C(CCc1ccccc1)c1ccccc1OCC(O)CN1CCC(c2ccccc2)CC1 (racemic)
< 5.30

Attention now turns to another entry.
Identify the reported pIC50 for the following entry. Cl.O=C(CCc1ccccc1)c1cc(F)ccc1OCC(O)CN1CCN(C(c2ccccc2)c2ccccc2)CC1 (racemic)
< 5.30

====

Tested on: Raji
Test: Cytotoxicity against human Raji cells after 72 hrs by luminescence assay
Format: cell-based
parameter measured: Activity

Cl.O=C(/C=C/c1ccccc1)c1ccccc1O
Non-toxic
Cl.O=C(CCc1ccccc1)c1cc(F)ccc1OCC(O)CN1CCC(c2ccccc2)CC1 (racemic)
Non-toxic
Cl.O=C(CCc1ccccc1)c1ccccc1OCC(O)CN1CCC(c2ccccc2)CC1 (racemic)
Non-toxic
COc1cccc(N2CCN(CC(O)COc3ccccc3C(=O)CCc3ccc(F)cc3)CC2)c1.Cl (racemic)
Non-toxic
Cc1cccc([N+]2(c3ccccc3)CCN(CC(O)COc3ccccc3C(=O)CCc3ccc(F)cc3)CC2)c1.[Cl-] (racemic)
Non-toxic
COc1cccc(N2CCN(CC(O)COc3ccccc3C(=O)CCc3ccccc3)CC2)c1.Cl (racemic)
Non-toxic

For each of the molecules below, note its Activity.
1. Cc1ccccc1N1CCN(CC(O)COc2ccc(F)cc2C(=O)CCc2ccccc2)CC1.Cl (racemic)
2. CCCCN(CCCC)CC(O)COc1ccccc1C(=O)CCc1ccccc1.Cl (racemic)
3. Cl.O=C(CCc1ccc(F)cc1)c1cc(F)ccc1OCC(O)CN1CCC(O)CC1 (racemic)
4. Cl.Nc1ccc(N2CCN(CC(O)COc3ccccc3C(=O)CCc3ccc(F)cc3)CC2)cc1 (racemic)
5. Cc1cccc(N2CCN(CC(O)COc3ccc(F)cc3C(=O)CCc3ccccc3)CC2)c1.Cl (racemic)
6. Cl.O=C(CCc1ccc(F)cc1)c1cc(F)ccc1OCC(O)CN1CCCCC1 (racemic)

1. Non-toxic
2. Non-toxic
3. Non-toxic
4. Non-toxic
5. Non-toxic
6. Non-toxic

For each of the molecules below, note its Activity.
1. Cl.O=C(CCc1ccccc1)c1cc(F)ccc1OCC(O)CN1CCN(C(c2ccccc2)c2ccccc2)CC1 (racemic)
2. Cl.O=C(CCc1ccc(F)cc1)c1cc(F)ccc1OCC(O)CN1CCN(c2ccc([N+](=O)[O-])cc2)CC1 (racemic)
3. Cl.O=C(CCc1ccc(F)cc1)c1ccccc1OCC(O)CN1CCN(c2ccc(C(F)(F)F)cc2)CC1 (racemic)
4. Cl.O=C(CCc1ccccc1)c1cc(F)ccc1O
5. Cl.O=C(CCc1ccc(F)cc1)c1ccccc1OCC(O)CNCc1ccccc1 (racemic)
6. CCCN(CCC)CC(O)COc1ccc(F)cc1C(=O)CCc1ccc(F)cc1.Cl (racemic)
7. Cl.O=C(CCc1ccc(F)cc1)c1ccccc1OCC(O)CN1CCOCC1 (racemic)

1. Non-toxic
2. Non-toxic
3. Non-toxic
4. Non-toxic
5. Non-toxic
6. Non-toxic
7. Non-toxic

For each of the molecules below, note its Activity.
1. Cl.O=C(CCc1ccc(F)cc1)c1cc(F)ccc1OCC(O)CN1CCN(c2ccccc2F)CC1 (racemic)
2. Cl.O=C(CCc1ccc(F)cc1)c1ccccc1OCC(O)CN1CCN(c2ccc(Cl)cc2)CC1 (racemic)
3. Cc1cccc(N2CCN(CC(O)COc3ccccc3C(=O)CCc3ccccc3)CC2)c1.Cl (racemic)
4. Cl.O=C(CCc1ccccc1)c1ccccc1OCC(O)CN1CCN(c2ccccc2)CC1 (racemic)
5. Cl.O=C(CCc1ccccc1)c1ccccc1OCC(O)CN1CCN(C(=O)c2ccccc2)CC1 (racemic)
6. Cl.O=C(CCc1ccc(F)cc1)c1cc(F)ccc1OCC(O)CN1CCC(c2ccccc2)CC1 (racemic)
7. Cc1cccc(N(CC(O)COc2ccc(F)cc2C(=O)CCc2ccc(F)cc2)c2ccccc2)c1.Cl (racemic)
8. CCN1CCN(CC(O)COc2ccccc2C(=O)CCc2ccccc2)CC1.Cl (racemic)

1: Non-toxic; 2: Non-toxic; 3: Non-toxic; 4: Non-toxic; 5: Non-toxic; 6: Non-toxic; 7: Non-toxic; 8: Non-toxic

For each of the molecules below, note its Activity.
1. Cl.O=C(CCc1ccccc1)c1ccccc1OCC(O)CN1CCN(c2ccc(Cl)c(Cl)c2)CC1 (racemic)
2. Cl.O=C(CCc1ccc(F)cc1)c1cc(F)ccc1OCC(O)CN1CCC(c2ccc(Cl)cc2)CC1 (racemic)
3. Cl.O=C(CCc1ccc(F)cc1)c1cc(F)ccc1OCC(O)CN1CCN(c2ccccc2)CC1 (racemic)
4. COc1ccc(N2CCN(CC(O)COc3ccccc3C(=O)CCc3ccccc3)CC2)cc1.Cl (racemic)
5. Cl.O=C(/C=C/c1ccc(F)cc1)c1cc(F)ccc1O
6. COc1cccc(N2CCN(CC(O)COc3ccc(F)cc3C(=O)CCc3ccc(F)cc3)CC2)c1.Cl (racemic)
7. Cc1cccc(N2CCN(CC(O)COc3ccc(F)cc3C(=O)CCc3ccc(F)cc3)CC2)c1.Cl (racemic)

Non-toxic
Non-toxic
Non-toxic
Non-toxic
Non-toxic
Non-toxic
Non-toxic

Identify the reported Activity for the following entry. Cc1cccc(N(CC(O)COc2ccccc2C(=O)CCc2ccccc2)c2ccccc2)c1.Cl (racemic)
Non-toxic

====

System: Raji
Test: Cytotoxicity against human Raji cells after 72 hrs by luminescence assay
Type: cell-based
parameter measured: Activity

Cl.O=C(CCc1ccccc1)c1ccccc1OCC(O)CN1CCN(Cc2ccccc2)CC1 (racemic)
Non-toxic
Cc1ccccc1N1CCN(CC(O)COc2ccccc2C(=O)CCc2ccc(F)cc2)CC1.Cl (racemic)
Non-toxic
Cl.O=C(CCc1ccc(F)cc1)c1ccccc1OCC(O)CN1CCN(c2ccc([N+](=O)[O-])cc2)CC1 (racemic)
Non-toxic
Cl.Nc1ccc(N2CCN(CC(O)COc3ccc(F)cc3C(=O)CCc3ccccc3)CC2)cc1 (racemic)
Non-toxic

====

Molecular target: Kir2.1 (Homo sapiens, UniProt P63252)
Sequence (P63252 whole entry): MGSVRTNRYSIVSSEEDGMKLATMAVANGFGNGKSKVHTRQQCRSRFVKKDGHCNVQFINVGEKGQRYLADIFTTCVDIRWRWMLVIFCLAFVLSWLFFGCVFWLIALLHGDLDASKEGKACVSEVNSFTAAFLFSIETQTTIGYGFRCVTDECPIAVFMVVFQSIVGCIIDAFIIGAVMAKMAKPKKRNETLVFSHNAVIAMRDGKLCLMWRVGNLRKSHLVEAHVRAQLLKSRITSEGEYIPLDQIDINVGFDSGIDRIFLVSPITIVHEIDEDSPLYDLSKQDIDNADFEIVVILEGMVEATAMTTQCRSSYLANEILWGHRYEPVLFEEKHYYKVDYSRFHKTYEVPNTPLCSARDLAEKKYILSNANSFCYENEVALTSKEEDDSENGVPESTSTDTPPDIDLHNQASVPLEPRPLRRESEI
Assay: Inhibition of Kir2.1 at 10 uM after 5 mins by patch clamp assay
parameter measured: inhibition at 5 min, 10 µM (%)
Answers are plain numbers, in %.

For Kir2.1 (Homo sapiens, UniProt P63252), give the measured inhibition at 5 min, 10 µM of the entry CCCNCC(O)COc1ccccc1C(=O)CCc1ccccc1 (racemic)
0.2

====

Tested on: HEK293
Assay: Cytotoxicity against human HEK293 cells after 72 hrs by luminescence assay
Assay type: cell-based
Conditions: hek293, 72 h
parameter measured: Activity

Cc1ccccc1N1CCN(CC(O)COc2ccc(F)cc2C(=O)CCc2ccccc2)CC1.Cl (racemic)
Non-toxic
Cl.O=C(CCc1ccc(F)cc1)c1cc(F)ccc1OCC(O)CNCc1ccccc1 (racemic)
Non-toxic
Cl.O=C(CCc1ccccc1)c1ccccc1OCC(O)CN1CCC(c2ccc(Cl)cc2)CC1 (racemic)
Non-toxic
Cc1ccc(N2CCN(CC(O)COc3ccc(F)cc3C(=O)CCc3ccccc3)CC2)cc1.Cl (racemic)
Non-toxic

====

Test system: HEK293
Assay: Cytotoxicity against human HEK293 cells after 72 hrs by luminescence assay
Format: cell-based
Conditions: hek293, 72 h
parameter measured: Activity

The cases that follow already have their Activity on record.
COc1cccc(N2CCN(CC(O)COc3ccccc3C(=O)CCc3ccc(F)cc3)CC2)c1.Cl (racemic)
Non-toxic
Cc1cccc(N(CC(O)COc2ccccc2C(=O)CCc2ccccc2)c2ccccc2)c1.Cl (racemic)
Non-toxic
Cl.O=C(CCc1ccccc1)c1cc(F)ccc1OCC(O)Cn1ccc2ccccc21 (racemic)
Non-toxic
Cc1cccc(N2CCN(CC(O)COc3ccc(F)cc3C(=O)CCc3ccc(F)cc3)CC2)c1.Cl (racemic)
Non-toxic
Cl.O=C(CCc1ccccc1)c1ccccc1OCC(O)CN(C1CCCCC1)C1CCCCC1 (racemic)
Non-toxic

For each of the compounds below, note its Activity.
1. Cl.O=C(CCc1ccc(F)cc1)c1cc(F)ccc1OCC(O)CN1CCC(c2ccc(Cl)cc2)CC1 (racemic)
2. Cl.O=C(CCc1ccc(F)cc1)c1ccccc1OCC(O)CN(Cc1ccccc1)c1ccccc1 (racemic)
3. CCN(CC)CC(O)COc1ccccc1C(=O)CCc1ccc(F)cc1.Cl (racemic)
4. Cl.O=C(CCc1ccc(F)cc1)c1cc(F)ccc1OCC(O)CN1CCN(c2ccc(Cl)c(Cl)c2)CC1 (racemic)
5. Cl.O=C(CCc1ccccc1)c1ccccc1OCC(O)CN1CCN(c2ccc(C(F)(F)F)cc2)CC1 (racemic)

1. Non-toxic
2. Non-toxic
3. Non-toxic
4. Non-toxic
5. Non-toxic

For each of the compounds below, note its Activity.
1. CCN(CC)CC(O)COc1ccc(F)cc1C(=O)CCc1ccccc1.Cl (racemic)
2. COc1ccc(N2CCN(CC(O)COc3ccc(F)cc3C(=O)CCc3ccccc3)CC2)cc1.Cl (racemic)
3. Cc1ccc(N2CCN(CC(O)COc3ccc(F)cc3C(=O)CCc3ccc(F)cc3)CC2)cc1.Cl (racemic)

["Non-toxic", "Non-toxic", "Non-toxic"]
